# SYSTEM TESTED: SHP-2 full length protein (Homo sapiens (Human))
# TEST DETAILS: SHP-2 biochemical DiFMUP pseudosubstrate-fluorogenic assay
# STUDY CONDITIONS: 0.2 nM SHP-2, 1 μM IRS-1 activator peptide, 50 μM DiFMUP; read-out: SHP2 IC50
The following compounds are shown together with reported pIC50 values.
# reply with the number alone; pIC50 is -log10 of concentration in mol/L

C[C@@H]1OCC2(CCN(c3ncc(Sc4ccnc5[nH]ccc45)c4nccn34)CC2)[C@@H]1N [Example 130]    8.24
Cc1nc(N2CCC3(CCC[C@H]3N)CC2)n2ncnc2c1-c1cccc(Cl)c1Cl [Example 60]    7.01
N[C@@H]1CCCC12CCN(c1ncc(-c3cccc(Cl)c3Cl)c3nccn13)CC2 [Example 52]    6.55

Next compound, please.
Per the reported SHP-2 full length protein (Homo sapiens (Human)) data, N[C@@H]1c2ccccc2CC12CCN(c1ncc(Sc3ccnc4sccc34)c3nccn13)CC2 [Example 138] has pIC50 of 8.66

====

# SYSTEM TESTED: SHP-2 full length protein (Homo sapiens (Human))
# TEST DETAILS: SHP-2 biochemical DiFMUP pseudosubstrate-fluorogenic assay
# STUDY CONDITIONS: 0.2 nM SHP-2, 1 μM IRS-1 activator peptide, 50 μM DiFMUP; read-out: SHP2 IC50
ASSAY ENDPOINT: IC50 (nM)
Give the number; nM is assumed, so skip it.

C[C@@H]1OCC2(CCN(c3ncc(Sc4ccnc5[nH]cnc45)c4nccn34)CC2)[C@@H]1N    27
CC1(N)CCN(c2ncc(Sc3ccccc3)c3nccn23)CC1    7200
Cc1nc(N2CCC3(CC2)CO[C@@H](C)[C@H]3N)n2ccnc2c1Sc1cccc(Cl)c1Cl    3.3

Per the reported SHP-2 full length protein (Homo sapiens (Human)) data, Cc1nc(N2CCC3(CCC[C@H]3N)CC2)n2ccnc2c1Sc1ccc(N)nc1C(F)(F)F has IC50 of 9.9

====

# SYSTEM TESTED: SHP-2 full length protein (Homo sapiens (Human))
# TEST DETAILS: SHP-2 biochemical DiFMUP pseudosubstrate-fluorogenic assay
# STUDY CONDITIONS: 0.2 nM SHP-2, 1 μM IRS-1 activator peptide, 50 μM DiFMUP; read-out: SHP2 IC50
The following compounds are shown together with reported pIC50 values.
# reply with the number alone; pIC50 is -log10 of concentration in mol/L

N[C@@H]1C[C@H](O)CC12CCN(c1ncc(Sc3cccc(Cl)c3Cl)c3nccn13)CC2    8.92
C[C@@H]1OCC2(CCN(c3ncc(Sc4ccnc5sccc45)c4nccn34)CC2)[C@@H]1N    8.40
Cc1nc(N2CCC3(CCC[C@H]3N)CC2)n2ccnc2c1-c1ccccn1    5.27

Value of measured pIC50 for the entry C[C@@H]1OCC2(CCN(c3ncc(Sc4cccc5c(C=O)csc45)c4nccn34)CC2)[C@@H]1N : 8.39

====

# SYSTEM TESTED: SHP-2 full length protein (Homo sapiens (Human))
# TEST DETAILS: SHP-2 biochemical DiFMUP pseudosubstrate-fluorogenic assay
# STUDY CONDITIONS: 0.2 nM SHP-2, 1 μM IRS-1 activator peptide, 50 μM DiFMUP; read-out: SHP2 IC50
The following compounds are shown together with reported log10 of IC50 values.
The figures below represent log10 of IC50, where IC50 is stated in nM.

Field: example entries. Status: answers known.
N[C@@H]1CCCC12CCN(c1ncc(Nc3cccc(Cl)c3Cl)c3nccn13)CC2 [Example 72]    3.30
C[C@@H]1OCC2(CCN(c3ncc(Oc4cccc(Cl)c4Cl)c4nccn34)CC2)[C@@H]1N [Example 71]    2.08

Per the reported SHP-2 full length protein (Homo sapiens (Human)) data, Cc1nc(N2CCC3(CCC[C@H]3N)CC2)n2ccnc2c1-c1cnc2ccccn12 [Example 15] has log10 of IC50 of 2.54

Per the reported SHP-2 full length protein (Homo sapiens (Human)) data, C[C@@H]1OCC2(CCN(c3ncc(Sc4cccn5nccc45)c4nccn34)CC2)[C@@H]1N [Example 98] has log10 of IC50 of 1.20

Per the reported SHP-2 full length protein (Homo sapiens (Human)) data, Cc1nc(N2CCC3(CCC[C@H]3N)CC2)n2ccnc2c1-c1cnn(C)c1C [Example 13] has log10 of IC50 of 3.00

Per the reported SHP-2 full length protein (Homo sapiens (Human)) data, Cc1nc(N2CCC3(CC2)Cc2ccccc2[C@H]3N)n2ccnc2c1-c1cccc(Cl)c1Cl [Example 135] has log10 of IC50 of 0.73

Per the reported SHP-2 full length protein (Homo sapiens (Human)) data, Cc1nc(N2CCC3(CCC[C@H]3N)CC2)n2ccnc2c1-c1sccc1Cl [Example 12] has log10 of IC50 of 1.95

Per the reported SHP-2 full length protein (Homo sapiens (Human)) data, CC(C)Sc1ccccc1Sc1cnc(N2CCC3(CC2)Cc2ccccc2[C@H]3N)n2ccnc12 [Example 143] has log10 of IC50 of 1.04

Per the reported SHP-2 full length protein (Homo sapiens (Human)) data, Nc1nccc(Sc2cnc(N3CCC4(CC3)Cc3ccccc3[C@H]4N)n3ccnc23)c1Cl [Example 121] has log10 of IC50 of 0.68

Per the reported SHP-2 full length protein (Homo sapiens (Human)) data, N[C@@H]1CCCC12CCN(c1nc(Cl)c(-c3cccc(Cl)c3Cl)c3nccn13)CC2 [Example 69] has log10 of IC50 of 0.49

====

# SYSTEM TESTED: SHP-2 full length protein (Homo sapiens (Human))
# TEST DETAILS: SHP-2 biochemical DiFMUP pseudosubstrate-fluorogenic assay
# STUDY CONDITIONS: 0.2 nM SHP-2, 1 μM IRS-1 activator peptide, 50 μM DiFMUP; read-out: SHP2 IC50
ASSAY ENDPOINT: IC50 (µM)
Give the number; µM is assumed, so skip it.

CC1(N)CCN(c2ncc(Sc3cccc(Cl)c3Cl)c3nccn23)CC1 [Example 48]    0.12
Cc1nc(N2CCC3(CCC[C@H]3N)CC2)n2ccnc2c1-c1cccc(Cl)c1Cl (single isomer, unassigned) [Example 11]    0.0036

Value of measured IC50 for the entry Cc1nc(N2CCC3(CCC[C@H]3N)CC2)n2ccnc2c1-c1ccnc(N)c1Cl [Example 29] : 1.3

Value of measured IC50 for the entry Nc1ccc(Sc2cnc(N3CCC4(CCC[C@H]4N)CC3)n3ccnc23)c(C(F)(F)F)n1 [Example 51] : 0.015

====

# SYSTEM TESTED: SHP-2 full length protein (Homo sapiens (Human), UniProt Q06124)
# Sequence (Q06124 whole entry): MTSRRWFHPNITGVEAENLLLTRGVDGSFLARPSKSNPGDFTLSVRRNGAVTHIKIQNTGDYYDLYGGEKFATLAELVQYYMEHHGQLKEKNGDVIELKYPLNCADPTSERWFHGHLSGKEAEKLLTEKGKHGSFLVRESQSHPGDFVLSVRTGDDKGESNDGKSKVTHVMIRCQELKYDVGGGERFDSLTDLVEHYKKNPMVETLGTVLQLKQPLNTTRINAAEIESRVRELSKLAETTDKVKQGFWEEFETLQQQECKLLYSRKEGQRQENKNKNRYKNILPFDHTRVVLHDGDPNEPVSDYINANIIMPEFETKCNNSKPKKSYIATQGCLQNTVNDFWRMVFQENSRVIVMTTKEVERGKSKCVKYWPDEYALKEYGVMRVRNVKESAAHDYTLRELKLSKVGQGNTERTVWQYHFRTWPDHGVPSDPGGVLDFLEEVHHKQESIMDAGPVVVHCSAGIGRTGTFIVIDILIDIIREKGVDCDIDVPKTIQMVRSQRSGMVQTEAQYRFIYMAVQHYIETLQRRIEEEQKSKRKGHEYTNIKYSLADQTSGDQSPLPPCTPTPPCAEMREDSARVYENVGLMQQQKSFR
# TEST DETAILS: SHP-2 biochemical DiFMUP pseudosubstrate-fluorogenic assay
# STUDY CONDITIONS: 0.2 nM SHP-2, 1 μM IRS-1 activator peptide, 50 μM DiFMUP; read-out: SHP2 IC50
Threshold-based label: IC50 under 80 nM gives Fulfilled, IC50 not under 80 nM gives Not fulfilled.

N[C@H]1c2ccccc2CC12CCN(c1ncc(Sc3cccc(Cl)c3Cl)c3nccn13)CC2    Not fulfilled
C[C@@H]1OCC2(CCN(c3ncc(Sc4cncc5ccccc45)c4nccn34)CC2)[C@@H]1N    Not fulfilled
CSc1c(Cl)cccc1Sc1cnc(N2CCC3(CC2)CO[C@@H](C)[C@H]3N)n2ccnc12    Fulfilled
CC1(N)CCN(c2ncc(Sc3cccc(Cl)c3Cl)c3ncnn23)CC1    Not fulfilled
Cc1nc(N2CCC3(CC2)C[C@@H](O)C[C@H]3N)n2ccnc2c1Sc1cccc(Cl)c1Cl    Fulfilled

Switching to the query record.
Qu. Bench note: check whether Cc1nc(N2CCC3(CCC[C@H]3N)CC2)n2ccnc2c1Sc1ccnc(N)c1Cl shows IC50 below 80 nM
Ans. Fulfilled

====

# SYSTEM TESTED: SHP-2 full length protein (Homo sapiens (Human), UniProt Q06124)
# TEST DETAILS: SHP-2 biochemical DiFMUP pseudosubstrate-fluorogenic assay
# STUDY CONDITIONS: 0.2 nM SHP-2, 1 μM IRS-1 activator peptide, 50 μM DiFMUP; read-out: SHP2 IC50
ASSAY ENDPOINT: IC50 (µM)
Give the number; µM is assumed, so skip it.

C[C@@H]1OCC2(CCN(c3ncc(Sc4ccc(C(N)=O)c5ccccc45)c4nccn34)CC2)[C@@H]1N [Example 120]    0.026
COc1ccc2nccc(Sc3cnc(N4CCC5(CC4)CO[C@@H](C)[C@H]5N)n4ccnc34)c2c1 [Example 132]    0.022
Nc1cc(C(F)(F)F)c(Sc2cnc(N3CCC4(CCC[C@H]4N)CC3)n3ccnc23)cn1 [Example 50]    7.5

Next compound, please.
Value of measured IC50 for the entry C[C@@H]1OCC2(CCN(c3ncc(Sc4cc(N)nc5ccccc45)c4nccn34)CC2)[C@@H]1N [Example 111] : 0.0071

Reference source for all entries: patent US11179397B2
